Attribution: patent US20110165145A1

# target-under-test: T1, IGF-IIE (amino acids 1-104 of pro-IGF-II) (human, UniProt P01344 25-128)
# T1 construct: Biotinylated in the selections; also called IGF-IIE (104aa)
# T1 sequence (P01344 25-128): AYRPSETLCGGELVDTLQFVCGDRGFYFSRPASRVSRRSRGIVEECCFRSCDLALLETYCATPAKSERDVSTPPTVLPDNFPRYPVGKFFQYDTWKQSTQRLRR
# assay-comment: SPR, IgG on Protein G', then ligand, then BP; competitor BP4; 0 = no significant competition, 5 = competes strongly
quantity-kind: competition score (score 0-5)
Your answer should be a plain number; it is taken to be in score 0-5.

Consider the following illustrative entries.
binder: M0072-G06 IgG (parental) (antibody, V domains shown) VH: EVQLLESGGGLVQPGGSLRLSCAASGFTFSEYVMWWVRQAPGKGLEWVSVISPSGGYTVYADSVKGRFTISRDNSKNTLYLQMNSLRAEDTAVYYCARDRGGATTLDYWGQGTLVTVSS VL: DIQMTQSPSTLSASVGDRVTITCRASQTISSWLAWYQQKPGKAPKLMIYKAASLGSEVPSRFSGSGSGTEFTLTISSLQPEDFSTYYCQQYKTYPVTFGQGTRLEIK
competition score [score 0-5]: 1
//
binder: M0064-F02 IgG (parental, non-germlined) (antibody, V domains shown) VH: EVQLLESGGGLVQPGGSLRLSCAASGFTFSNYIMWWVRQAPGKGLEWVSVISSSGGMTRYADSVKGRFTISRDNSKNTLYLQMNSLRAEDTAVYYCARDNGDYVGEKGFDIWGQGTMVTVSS VL: DIQMTQSPSSLSASVGDRVTITCRASQSISNYLNWYQQKPGKAPKLLIYTASTLQSGVPSRFSGSASGTDFTLTINSLQPEDFATYSCQQSYNSPWTFGQGTKVEIK
competition score [score 0-5]: 4

Turning now to a further binder:
[in] I'd like to know its competition score. The binder in question is M0072-C06 IgG (parental) (antibody, V domains shown) VH: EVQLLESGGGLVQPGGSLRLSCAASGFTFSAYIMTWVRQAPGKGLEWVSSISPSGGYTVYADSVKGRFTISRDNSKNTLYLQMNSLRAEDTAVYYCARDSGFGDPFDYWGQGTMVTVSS VL: DIQMTQSPSSLSASVGDRVTITCRASQSIRNYLNWYQQKPGKAPKLLIYAASKLEDGVPSRFSGSGTGTDFTLTIRSLQPEDFASYFCQQSYSSPGITFGPGTKVEIK
[out] 1
